- System: VchCAST RNA-guided transposition machinery (E. coli BL21(DE3) host, lacZ target)
- test_method_notes: relative integration efficiency (T-LR orientation) vs wild-type transposon end (log2 (normalized fold change)); transposon end mutated: left end; higher = more efficient transposition
Please provide measured relative integration efficiency (log2) for the entries that follow.
Numbers only.

AATGTTGTTGATGCAACCATAAAGTGATATTTAATACAACCATAAAGTGATATTTAACTTAACCACACAACCATATATTGATATCTCACAAAACAACCATAAGTTGATATTTTTGTGAATCGAGTATTTCAGCAAAACTACTGCAGTAAGAA : -3.38
AATGTTGTTGATGCAACCATATATTGATATCTCATAATTATTTATAATCAGCAACTTAACCACAAAACAACCATATATTGATATCTCACAAAAGTTGGTATTCAACTATAAAATGTGAATCGAGTATTTCAGCAAAACTACTGCAGTAAGAA : -2.34

Attention now turns to another entry.
Fill blank: measured relative integration efficiency (log2) of the sequence AATGTTGTTGATGCAACCATAAAGTGATATTTAATAATTATTTATAATCAGCAACTTAACCACAAAACAAAACGCGCGGTCGCGAGACACCCCACCAACGCCTGGTCGCGGGGGTGTCCGATCTGATTTCAGCAAAACTACTGCAGTAAGAA is ____.
-3.29

* * *

- Test system: VchCAST RNA-guided transposition machinery (E. coli BL21(DE3) host, lacZ target)
- test_method_notes: relative integration efficiency (T-RL orientation) vs wild-type transposon end (log2 (normalized fold change)); transposon end mutated: right end (5 bp flank + 75 bp right end); higher = more efficient transposition
property: relative integration efficiency (log2)
Numbers only.

Return reported relative integration efficiency (log2) values for all items listed beneath this line.
1. ACATTTGTTGATACAACCATAAAAGGATCATTACACCCATCAATTGATAATTATCACACCCAATTTAACTATAACGCTCTGATCATAGTCAGACCAACATTGCTACGACCCGTATTCGCACCGACAC
2. ACATTTGTTGATACAACCATAAAATTCGCATTACACCCATAAATTGATAATTATCACACCCATAAATTGATATTGCCTCTGATCATAGTCAGACCAACATTGCTACGACCCGTATTCGCACCGACAC
3. ACATTTGTTGATACAACCATAAAATGATAATTACACCCATAAATTTATTATTATCACACCCAATTTAACTATAACGCTCTGATCATAGTCAGACCAACATTGCTACGACCCGTATTCGCACCGACAC
4. ACATTTGTTGATACAACCATAAAATGATAAGGCAACCCATAAATTGATAATTATCACACCCATAAATTGATATTGCCTCTGATCATAGTCAGACCAACATTGCTACGACCCGTATTCGCACCGACAC
5. ACATTTGTTGATACAACCATAAAATGATAATTAATAATTATTTATAATCAGCAACTTAACCACAACACCCATAAATTGATAATTATCAACAAACGCCCGGTCGCGGTACTCTGATCATAGTCAGACC

-3.44
-2.95
-2.3
-0.59
-3.33

* * *

- System: VchCAST RNA-guided transposition machinery (E. coli BL21(DE3) host, lacZ target)
- test_method_notes: relative integration efficiency (T-LR orientation) vs wild-type transposon end (log2 (normalized fold change)); transposon end mutated: right end (5 bp flank + 75 bp right end); higher = more efficient transposition
Outcome: true (1) for relative integration efficiency (log2) of at least -0.2; false (0) for anything lower.

Known results for sequences:
ACATTTGTTGATACAACCCTAAAATGATAATTACACCCATAAATGGATCATTATCACCCCCAATTTAACTATAACGCTCTGATCATAGTCAGACCAACATTGCTACGACCCGTATTCGCACCGACAC : false (0)
ACATTTGTTGATACAACCATAAAATGATAATTACACCCATAAATTGATAATTATCACACCCATAAATTGATATTGCCTCTGATCATAGTCAACTGTATATAAATACAGTTCAGACCAGCACCGACAC : true (1)
ACATTTGTTGATACAACCATTAAATGATAATTCCACCCTTAAATTGATAATTATCACACCCAATTTAACTATAACGCTCTGATCATAGTCAGACCAACATTGCTACGACCCGTATTCGCACCGACAC : true (1)

Record ACATTTGTTGATACAACCATAAAATGATAATTACACCCATAAATTGATAATTATCACACCCATAAATTGCGCGGTAAGAGGATCATAGTCAGACCAACATTGCTACGACCCGTATTCGCACCGACAC ; criterion: relative integration efficiency (log2) no lower than -0.2. Met?
true (1)

# iterate: ACATTTGTTGATACAACCATAAAATGATAATTACACCCATAAATTGATAATTATCACACCCATAAATTGATATTGCCTCTTCATGGTCTAAACTTCAGTCCTGGGCATCAATTTTCAGCACCGACAC
true (1)

* * *

- Test system: VchCAST RNA-guided transposition machinery (E. coli BL21(DE3) host, lacZ target)
- test_method_notes: relative integration efficiency (T-RL orientation) vs wild-type transposon end (log2 (normalized fold change)); transposon end mutated: right end (5 bp flank + 75 bp right end); higher = more efficient transposition
Assignment: determine reported relative integration efficiency (log2) for the given sequences.
One number for each entry.

Take a look at these entries with their results.
ACATTGGTCGATACAACCATAAAATGATAATTACACCCATAAATTCATAATTATCACACCCAATTTAACTATAACGCTCTGATCATAGTCAGACCAACATTGCTACGACCCGTATTCGCACCGACAC : -7.94
ACATTTGTTGATACAACCATAAAATGATAATTACACCCATAAATTGATAATTATCACACCCATAAATTGATATTGCCCAACCATAAAATGATAATTATCTGATCATAGTCAGACCAAGCACCGACAC : -0.0286

Here is the next item to consider.
Any idea what relative integration efficiency (log2) was measured for ACATTTGTTGATACAACCATAAAATGATAATTACACCCATATTTTGATAATTATCACACCCATAAATTGATATTGCCTCTGATCATAGTCAGACCAACATTGCTACGACCCGTATTCGCACCGACAC ?
-0.188

* * *

- System: VchCAST RNA-guided transposition machinery (E. coli BL21(DE3) host, lacZ target)
- test_method_notes: relative integration efficiency (T-LR orientation) vs wild-type transposon end (log2 (normalized fold change)); transposon end mutated: right end (5 bp flank + 75 bp right end); higher = more efficient transposition
Could you please report measured relative integration efficiency (log2) for the items listed next?
Answers are plain numbers.

Example entries and their recorded answers appear below.
ACATTAGTCGATACAACCATAAAATGATAATTACACCCATAAATGGATAATTATCACACCCAATTTAACTATAACGCTCTGATCATAGTCAGACCAACATTGCTACGACCCGTATTCGCACCGACAC : -5.29
ACATTTGTTGATACAACCATAAAATGATAATTACACCCATAAATTGATAATTATCACACCCATAAATTGATATTGCCTCTGATCATAGTCAGACCAACATTTGTGAGCGGATAACAAGCACCGACAC : -0.684
ACATTTGTTGATACAACCATAAAATGATAATTACACCCATAAATTGATATTGCTCAGTGGGTATTTAACTATAACGCTCTGATCATAGTCAGACCAACATTGCTACGACCCGTATTCGCACCGACAC : 2.58

I need relative integration efficiency (log2) for every entry listed below, if you could help.
1. ACATTTGTTGATACAACCATAAAATGATAATTACCCCCATAAATTGATAATGATGACACCGAATTTAACTATAACGCTCTGATCATAGTCAGACCAACATTGCTACGACCCGTATTCGCACCGACAC
2. ACATTTGTTGATAGTTGGTATTTTACTATTAATCACCCATAAATTGATAATTATCAGTGGGTATTTAACTATAACGCTCTGATCATAGTCAGACCAACATTGCTACGACCCGTATTCGCACCGACAC
3. ACATTTGTTGATACAACCATAAAATGATAATTACACCCATAAATTGATAATTATCACACCCATAAATTGATATTGCCTCTGATCATAGTCCAACCATAAAATGATAATTAAGACCAAGCACCGACAC
4. ACATTTGTTCATACAACCATAAAATGATAATTACACCCATAAATTCATAATTATCACCCCCAATTTAACTATAACGCTCTGATCATAGTCAGACCAACATTGCTACGACCCGTATTCGCACCGACAC
5. ACATTTGTGGATACAACCATAAAATGATAATTACACCCATAAATTGATAATTATCACCCCCAATTTAACTATAACGCTCTGATCATAGTCAGACCAACATTGCTACGACCCGTATTCGCACCGACAC
6. ACATTTGTTGATACAACCATAAAATGATAATTACACCCATAAATTGATAATTATCACACCCATAAATTGATATTGCCTCTCAGACCACATAGCTGCCATGTCCTGATCGGACGGACCGCACCGACAC

1: 2.16; 2: -4.49; 3: -0.498; 4: -0.0689; 5: 2.44; 6: 0.624

Need relative integration efficiency (log2) of ACATTTGTTGATACAACCATAAAGTGATATTTACAACCATAAAGTGATATTTATCACAACCATAAAGTGATATTTACTCTGATCATAGTCAGACCAACATTGCTACGACCCGTATTCGCACCGACAC , thanks.
0.061
